Readings of IC50 for the listed compounds
Test system: P. Falciparum NF54
Experiment: Plasmodium falciparum in vitro assay ([3H]-hypoxanthine incorporation)
Type: cell-based
Settings: Plasmodium falciparum, Erythrocyte, P. Falciparum NF54, erythrocytic stages in human red blood cells, 50% human serum

{"Compound": "Cc1cc(Nc2ccc(CN(C(=O)/C=C/c3ccc(OC(F)(F)F)cc3)C3CCN(C4CCN(C)CC4)CC3)cc2)ccn1 [Example 119]", "Measure unit": "nM", "IC50": 46}
{"Compound": "Cc1ncc(-c2ccc(CN(C(=O)/C=C/c3ccc(C(F)(F)F)cc3)C3CCN(C4CCCC4)CC3)cc2)s1 [Example 201]", "Measure unit": "nM", "IC50": 357}
{"Compound": "Cc1cc(Nc2ccc(CN(C(=O)/C=C/c3ccc(C(F)(F)F)cc3)C3CCN(Cc4cnc5ccccn45)CC3)cc2)ccn1 [Example 38]", "Measure unit": "nM", "IC50": 100}
{"Compound": "CC(C)N1CCN(c2ccc(CN(C(=O)/C=C/c3ccc(C(F)(F)F)cc3)C3CCN(C4CCCC4)CC3)cc2)CC1 [Example 199]", "Measure unit": "nM", "IC50": 96}
{"Compound": "Cc1cc(Nc2ccc(CN(C(=O)/C=C/c3ccc(Cl)cc3)C(C)CN(C)C)cc2)ccn1 (centres unmarked) [Example 209]", "Measure unit": "nM", "IC50": 172}
{"Compound": "CN(c1ccncc1)c1ccc(CN(C(=O)/C=C/c2ccc(C(F)(F)F)cc2)C2CCN(Cc3ncc4ccccn34)CC2)cc1 [Example 20]", "Measure unit": "nM", "IC50": 256}
{"Compound": "CCN(CC)Cc1cc(Nc2ccc(CN(C(=O)/C=C/c3ccc(C(F)(F)F)cc3)C3CCN(C)CC3)cc2)ccc1O [Example 185]", "Measure unit": "nM", "IC50": 39}
{"Compound": "COc1ccc(/C=C/C(=O)N(Cc2ccc(N(C)c3ccncc3)cc2)C2CCN(Cc3ccccc3)CC2)cc1 [Example 149]", "Measure unit": "nM", "IC50": 181}

====

System: P. Falciparum NF54
Assay: Plasmodium falciparum in vitro assay ([3H]-hypoxanthine incorporation)
Format: cell-based
Details: Plasmodium falciparum, Erythrocyte, P. Falciparum NF54, erythrocytic stages in human red blood cells, 50% human serum
Entries and their IC50

{"Compound": "COc1cc(Nc2ccc(CN(C(=O)/C=C/c3ccc(C(F)(F)F)cc3)C3CCN(C4CCCC4)CC3)cc2)ccn1 [Example 94]", "IC50 (nM)": 286}
{"Compound": "Cc1cc(N(C)c2ccc(CN(C(=O)/C=C/c3ccc(C(F)(F)F)cc3)C3CCN(C4CCCC4)CC3)cc2)ccn1 [Example 184]", "IC50 (nM)": 44}
{"Compound": "CN1CCC(Nc2ccc(CN(C(=O)/C=C/c3ccc(C(F)(F)F)cc3)C3CCN(C4CCCC4)CC3)cn2)CC1 [Example 105]", "IC50 (nM)": 152}
{"Compound": "Cc1cc(Nc2ccc(CN(C(=O)/C=C/c3ccc(C(F)(F)F)cc3)C3CCN(Cc4c(C)noc4C)CC3)cc2)ccn1 [Example 44]", "IC50 (nM)": 64}
{"Compound": "CC(C)CCN1CCC[C@@H](N(Cc2ccc(N(C)c3ccncc3)cc2)C(=O)/C=C/c2ccc(C(F)(F)F)cc2)C1 [Example 62]", "IC50 (nM)": 70}
{"Compound": "CN(c1ccncc1)c1ccc(CN(C(=O)/C=C/c2ccc(OC(F)F)cc2)C2CCN(Cc3ccccc3)CC2)cc1 [Example 145]", "IC50 (nM)": 69}
{"Compound": "CCN1CCC(N(Cc2ccc(N(C)c3ccncc3)cc2)C(=O)/C=C/c2ccc(C(F)(F)F)cc2)CC1 [Example 7]", "IC50 (nM)": 26}
{"Compound": "CN(c1ccncc1)c1ccc(CN(C(=O)/C=C/c2ccc(C(C)(C)C)cc2)C2CCN(Cc3ccccc3)CC2)cc1 [Example 144]", "IC50 (nM)": 174}
{"Compound": "CCc1ccc(/C=C/C(=O)N(Cc2ccc(N(C)c3ccncc3)cc2)C2CCN(Cc3ccccc3)CC2)cc1 [Example 147]", "IC50 (nM)": 157}
{"Compound": "O=C(/C=C/c1ccc(C(F)(F)F)cc1)N(Cc1ccc(Nc2cc(C(F)(F)F)nc3c(C(F)(F)F)cccc23)cc1)C1CCN(C2CCCC2)CC1 [Example 89]", "IC50 (nM)": 337}
{"Compound": "CN(c1ccncc1)c1ccc(CN(C(=O)/C=C/c2ccc(F)cc2)C2CCN(Cc3ccccc3)CC2)cc1 [Example 155]", "IC50 (nM)": 101}

src = patent US9637473B2
